Each entry below carries its reported total protein half-life in vivo.
Assay: total protein half-life in vivo (active degradation + dilution); higher = more stable protein
Conditions: wild type E. coli NCM3722; growth: C-lim chemostat; doubling time 12 h
Report as a plain number; the unit h is understood.

[
  {
    "Residues": "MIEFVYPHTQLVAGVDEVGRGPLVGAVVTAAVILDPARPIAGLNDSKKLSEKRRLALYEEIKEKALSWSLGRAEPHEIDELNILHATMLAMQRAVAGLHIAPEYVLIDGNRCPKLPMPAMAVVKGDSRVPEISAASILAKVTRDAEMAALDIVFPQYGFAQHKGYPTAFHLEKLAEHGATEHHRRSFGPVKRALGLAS",
    "Readout unit": "h",
    "total protein half-life in vivo": 3.19
  },
  {
    "Residues": "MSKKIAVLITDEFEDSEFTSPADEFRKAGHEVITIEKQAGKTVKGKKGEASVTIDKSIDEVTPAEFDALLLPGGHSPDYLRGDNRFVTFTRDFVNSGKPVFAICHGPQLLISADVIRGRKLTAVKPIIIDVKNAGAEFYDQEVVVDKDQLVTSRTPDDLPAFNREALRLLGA",
    "Readout unit": "h",
    "total protein half-life in vivo": 9.27
  },
  {
    "Residues": "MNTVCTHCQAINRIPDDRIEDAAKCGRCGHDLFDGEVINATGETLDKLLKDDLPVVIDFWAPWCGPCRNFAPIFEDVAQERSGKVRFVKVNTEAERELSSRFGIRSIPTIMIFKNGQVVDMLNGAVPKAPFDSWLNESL [P0AGG4]",
    "Readout unit": "h",
    "total protein half-life in vivo": 5.03
  }
]

Data point: `MAKNYYDITLALAGICQSARLVQQLAHQGHCDADALHVSLNSIIDMNPSSTLAVFGGSEANLRVGLETLLGVLNASSRQGLNAELTRYTLSLMVLERKLSSAKGALDTLGNRINGLQRQLEHFDLQSETLMSAMAAIYVDVISPLGPRIQVTGSPAVLQSPQVQAKVRATLLAGIRAAVLWHQVGGGRLQLMFSRNRLTTQAKQILAHLTPEL` ; total protein half-life in vivo = 12.2

---

Experiment: total protein half-life in vivo (active degradation + dilution); higher = more stable protein
Details: E. coli NCM3722 delta-smpB; growth: N-lim chemostat; doubling time 6 h
// reported total protein half-life in vivo per item
Give the number; h is assumed, so skip it.

[
  {
    "Residues": "MSITLSDSAAARVNTFLANRGKGFGLRLGVRTSGCSGMAYVLEFVDEPTPEDIVFEDKGVKVVVDGKSLQFLDGTQLDFVKEGLNEGFKFTNPNVKDECGCGESFHV [P0AAC8]",
    "Readout unit": "h",
    "total protein half-life in vivo": 0.889
  },
  {
    "Residues": "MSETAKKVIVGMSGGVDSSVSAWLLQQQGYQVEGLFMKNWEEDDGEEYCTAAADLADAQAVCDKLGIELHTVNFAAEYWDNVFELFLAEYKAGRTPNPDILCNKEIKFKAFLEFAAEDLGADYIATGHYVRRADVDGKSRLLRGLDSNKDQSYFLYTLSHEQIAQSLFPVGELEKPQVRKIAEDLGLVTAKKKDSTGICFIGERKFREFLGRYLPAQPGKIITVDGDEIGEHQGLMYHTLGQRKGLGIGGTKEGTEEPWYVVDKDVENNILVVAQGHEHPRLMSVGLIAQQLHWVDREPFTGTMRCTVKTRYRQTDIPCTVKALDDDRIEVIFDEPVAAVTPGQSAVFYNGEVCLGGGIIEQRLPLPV",
    "Readout unit": "h",
    "total protein half-life in vivo": 4.71
  }
]

Lab note: measured total protein half-life in vivo of `MSLTLTLTGTGGAQGVPAWGCECAACARARRSPQYRRQPCSGVVKFNDAITLIDAGLHDLADRWSPGSFQQFLLTHYHMDHVQGLFPLRWGVGDPIPVYGPPDEQGCDDLFKHPGLLDFSHTVEPFVVFDLQGLQVTPLPLNHSKLTFGYLLETAHSRVAWLSDTAGLPEKTLKFLRNNQPQVMVMDCSHPPRADAPRNHCDLNTVLALNQVIRSPRVILTHISHQFDAWLMENALPSGFEVGFDGMEIGVA` was 4.8
